Where do these numbers come from? They come from PubChem BioAssay (NCI).

# growth annotations
# Tested on: MDA-MB-435 melanoma
# Assay Remarks: NCI-60 one-dose screen, 48 h (100 = growth as untreated, 0 = no growth, -100 = all killed)
# Applied Conditions: 10 µM
The panel holds about 83,000 compounds, 20% with a hit somewhere; the sample as a whole holds those more often. Active and inactive are the calls of the source. How the source made its calls: active means growth percent below 10; inactive means the rest.

Compound: COc1ccc(Nc2ccnc(NCCNc3ccnc4cc(Cl)ccc34)n2)cc1
growth: -39.1% (active)
--
Compound: COc1cc(NC(=O)c2sc3nc4c(cc3c2N)C(O)CCC4)cc(OC)c1 (stereo unspecified)
growth: 8.37% (active)
--
Compound: COc1ccccc1CNCCN1C(=O)c2ccc3c4c(ccc(c24)C1=O)C(=O)N(CCNCc1ccccc1OC)C3=O
growth: -80.2% (active)
--
Compound: N#CSCC1CC(O)(c2ccccc2)CC(c2ccc(Cl)cc2)O1 (stereo unspecified)
growth: 3.01% (active)
--
Compound: O=C1NC(=O)c2ncccc21
growth: 100% (inactive)
--
Compound: COc1cc(NC(=O)CSc2nc3ccccc3c(=O)n2CCc2ccccc2)cc(OC)c1OC
growth: 32.1% (inactive)
--
Compound: COc1ccc2c(c1)O/C(=C\c1ccc([N+](=O)[O-])s1)C2=O
growth: 51.7% (inactive)
--
Compound: COc1ccc(/C=C/C(C)=N/OCC(=O)O)cc1
growth: 114% (inactive)
--
Compound: Fc1ccc2nc(-c3nc(-c4ccccc4)n4ccccc34)[nH]c2c1
growth: -19.4% (active)
--
Compound: O=c1c2ccccc2nc(SCCN2CCCCC2)n1CCc1ccccc1
growth: 95.9% (inactive)
--
Compound: O=C1/C(=C\c2ccc(F)cc2)CN(C(=O)c2ccc([N+](=O)[O-])cc2)C/C1=C\c1ccc(F)cc1
growth: -30% (active)
--
Compound: O=C(CCCCC(=O)Nc1ccc2c(c1)/C(=C/c1ccc[nH]1)C(=O)N2)NO
growth: 74.8% (inactive)
--
Compound: CCC(=O)N1C/C(=C/c2ccc(Br)cc2)C(=O)/C(=C/c2ccc(Br)cc2)C1
growth: -63% (active)
--
Compound: COc1ccc2c(c1)N(CCO)C1=C(C(=O)OC1)C2c1cc(OC)c(OC)c(OC)c1 (stereo unspecified)
growth: -48.2% (active)
--
Compound: N#Cc1ncc(Br)c(NC2CCCCCC2)n1
growth: 103% (inactive)
--
Compound: COc1ccc2c(c1)C(=O)c1c-2c(OCCN(C)C)nc2cc(OC)c(OC)cc12
growth: 56.8% (inactive)
--
Compound: O=C1/C(=C/c2ccc([N+](=O)[O-])o2)Oc2ccccc21
growth: -70.9% (active)
--
Compound: O=[N+]([O-])c1ccc(N/N=C/c2cccc3ccccc23)nc1
growth: 118% (inactive)
--
Compound: CO/N=C(/C(=O)NC1C(=O)N2C(C(=O)O)=C(COC(N)=O)CSC12)c1ccco1 (stereo unspecified)
growth: 104% (inactive)
--
Compound: COc1ccc(-c2nc(-c3nc4ccc(Cl)cc4[nH]3)c3ccccn23)cc1
growth: 58.3% (inactive)
--
Compound: CN(C)CCN=c1nc2c(c(N)n1-c1ccccc1)c(=S)n(-c1ccccc1)c(=S)n2-c1ccccc1
growth: -64.5% (active)
